target: Alpha-amylase 1A (Homo sapiens); test: Inhibition of human salivary alpha-amylase; conditions: concentration not given here
I'd appreciate it if you could label each record using inhibition and these ranges: b0 (below 20%), b1 (20% to below 80%), b2 (80% or more)

molecule=COc1ccc(-c2cc(=O)c3c(O)cc(O)cc3o2)cc1O label_value=b0
molecule=COc1cc(O)c2c(=O)cc(-c3ccc(O)cc3)oc2c1 label_value=b0
molecule=COc1ccc(-c2cc(=O)c3c(O)cc(O)cc3o2)cc1 label_value=b0
molecule=O=c1c(-c2ccc(O)cc2)coc2cc(O)ccc12 label_value=b1
molecule=O=C1C[C@@H](c2ccc(O)cc2)Oc2cc(O)cc(O)c21 label_value=b1
molecule="O=c1cc(-c2ccc(O)cc2)oc2cc(O)c(O)c(O)c12 [SCUTELLAREIN]" label_value=b2
molecule=COc1cc(O)c2c(=O)c(O)c(-c3ccc(O)c(O)c3)oc2c1 label_value=b0
molecule=COc1cc(-c2oc3cc(O)cc(O)c3c(=O)c2O)ccc1O label_value=b1
molecule=O=c1c(O)c(-c2ccc(O)cc2)oc2cc(O)cc(O)c12 label_value=b1
molecule="O=c1cc(-c2ccc(O)c(O)c2)oc2cc(O)cc(O)c12 [LUTEOLIN]" label_value=b2
molecule=O=c1c(-c2ccc(O)cc2)coc2cc(O)cc(O)c12 label_value=b1
molecule=COc1ccc([C@@H]2CC(=O)c3c(O)cc(O)cc3O2)cc1O label_value=b1
molecule=Oc1cc(O)c2c(c1)O[C@H](c1ccc(O)c(O)c1)[C@H](O)C2 label_value=b0
molecule="O=c1c(O)c(-c2ccc(O)c(O)c2)oc2cc(O)ccc12 [FISETIN]" label_value=b2
molecule="O=c1c(O)c(-c2ccc(O)c(O)c2)oc2cc(O)c(O)c(O)c12 [QUERCETAGETIN]" label_value=b2
molecule=Oc1cc(O)c2c(c1)O[C@H](c1ccc(O)c(O)c1)[C@@H](O)C2 label_value=b0
molecule=C[C@H]1O[C@H](O[C@H]2[C@H](O)[C@@H](O)[C@@H](O[C@H]3[C@H](O)[C@@H](O)[C@H](O)O[C@@H]3CO)O[C@@H]2CO)[C@H](O)[C@@H](O)[C@@H]1N[C@H]1C=C(CO)[C@@H](O)[C@H](O)[C@H]1O label_value=b2

Data credit: ChEMBL document CHEMBL1150430
